Reference source for all entries: ChEMBL document CHEMBL3352233

pIC50 listing for selected compounds.
TESTED_TARGET: P2Y purinoceptor 12 (Homo sapiens)
Sequence (Q9H244 whole entry): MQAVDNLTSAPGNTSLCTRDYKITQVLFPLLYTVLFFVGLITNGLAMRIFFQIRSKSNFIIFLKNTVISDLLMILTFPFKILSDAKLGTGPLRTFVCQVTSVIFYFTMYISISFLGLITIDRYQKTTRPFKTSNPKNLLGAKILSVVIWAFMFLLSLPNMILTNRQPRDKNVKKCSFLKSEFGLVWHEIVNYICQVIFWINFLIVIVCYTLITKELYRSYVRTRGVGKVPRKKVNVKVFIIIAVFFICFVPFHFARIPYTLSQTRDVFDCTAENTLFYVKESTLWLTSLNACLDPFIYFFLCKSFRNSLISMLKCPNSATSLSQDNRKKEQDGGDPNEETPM
ASSAY_PROCEDURE: Displacement of [33P]2MeS-ADP from P2Y12 receptor (unknown origin) transfected in CHO cells after 30 mins by scintillation counting analysis
Remember, pIC50 is on a log scale: it is -log10 of the molar concentration.

Reference set (3 entries):
COMPOUND	pIC50
CCCC(=O)c1cnn(-c2ccc(NC(=O)c3cn(CC(=O)NCCn4ccnc4)c4ccc(C)cc34)cc2)c1C	7.21
CCCC(=O)c1cnn(-c2ccc(NC(=O)c3cn(CC(=O)N4CCN5CCN(C)C(=O)C5C4)c4ccc(Cl)cc34)cc2)c1C (racemic)	8.10
CCCC(=O)c1cnn(-c2ccc(NC(=O)c3cn(CC(=O)NC4CCCN(C)C4)c4ccc(C)cc34)cc2)c1C (centres undefined)	7.15

Attention now shifts to the item below.
Measured pIC50 of CCCC(=O)c1cnn(-c2ccc(NC(=O)c3cn(CC(=O)OC)c4ccc(C)cc34)cc2)c1C : 7.03
